Values compiled from PubChem BioAssay (NCATS).

# ASSAY PROTOCOL: qHTS of pediatric cancer cell lines to identify multiple opportunities for drug repurposing: Primary screen for BT-37 cells (AID 1347094)
# EXPERIMENTAL CONDITIONS: BT-37 viability, CellTiter-Glo luminescence, 48 h; series mostly up to 57.3 µM
Results filed as inconclusive are left out. Active and inactive are the calls of the source. The call rests on the fitted dose curve; in most records, active means well fitted cell-killing curve with a large enough effect; inconclusive means small, poorly fitted or top-dose-only effect; inactive means flat fitted curve, though single readings scatter.
Give one outcome, nothing more. List: YES (active), NO (inactive)

COMPOUND	ANSWER LABEL
CC(NCc1ccc2c(c1)nc(NC(=O)c1ccc(-c3cn[nH]c3)s1)n2CC(C)(C)O)C(C)(C)C (stereo unspecified)	YES
CC(=O)c1c(C)c2cnc(Nc3ccc(N4CCNCC4)cn3)nc2n(C2CCCC2)c1=O	YES
O=C(c1cncc(Br)c1)N1CCC(N2CCCC2)CC1	NO

Field: outcome | Entry: Cc1nc(N)ncc1-c1nc(N2CCOCC2)c2sc(C(C)(C)O)cc2n1
YES

Next compound: O=C(CCCCCCNC(=O)c1cnc(N(c2ccccc2)c2ccccc2)nc1)NO
YES

Follow-up item: CCS(=O)(=O)c1cccc(-c2cc(C(=O)NC3CCN(C)CC3)c(C)c3[nH]c4ncc(C)cc4c23)c1
YES

###

# ASSAY PROTOCOL: Quantitative High-Throughput drug screen in 47 multiple myeloma cell lines against the NCATS MIPE library collection: KMS12PE_JCRB cell viability assay (AID 1918972); further: nearly all actives have a fitted effect of over 30% in size
# EXPERIMENTAL CONDITIONS: KMS12PE myeloma viability, CellTiter-Glo ATP, 48 h; series mostly up to 45.8 µM
Results filed as inconclusive are left out. Active and inactive are the calls of the source. The call rests on the fitted dose curve; in most records, active means well fitted cell-killing curve with a large enough effect; inconclusive means small, poorly fitted or top-dose-only effect, or effect the other way; inactive means no such curve, though single readings can be large or run the other way.
Result category, one only: class 1 for active, class 0 for inactive

State the result this test recorded for CNC(=O)c1cc(Oc2ccc(NC(=O)Nc3cc(C(C)(C)C)nn3-c3ccc4ncccc4c3)c(F)c2)ccn1 .
class 1

###

# ASSAY PROTOCOL: qHTS to identify inhibitors of the type 1 interferon - major histocompatibility complex class I in skeletal muscle: primary screen against the NCATS Mechanism Interrogation Plate v5.0 (MIPE) Libary (AID 1347411); further: nearly all actives have a fitted effect of over 65% in size
# EXPERIMENTAL CONDITIONS: iHSKM cells + IFN-b, HiBiT-tagged MHC-I luminescence, 24 h; series mostly up to 45.8 µM
Results filed as inconclusive are left out. The source made the active and inactive calls. Calls follow the shape of the dose curve; as a rule, active = well fitted inhibition curve with a large enough effect; inconclusive = small, poorly fitted or top-dose-only effect; inactive = no such curve, though single readings can be large or run the other way.
The reply should name one outcome from true (1) for active, false (0) for inactive

Consider the following illustrative entries.
COMPOUND	ANSWER LABEL
CNC(=O)c1c(F)cccc1Nc1nc(Nc2cc3c(cc2OC)CCN3C(=O)CN(C)C)nc2[nH]ccc12	true (1)
CN(C)CC(C)(C)CNc1nn2c(-c3ccccc3)nnc2cc1C1CCC1	false (0)
COc1ccc(OC)c(-c2nnc3ccc(-c4ccc(OC)c(O[C@@H]5CCOC5)c4)nn23)c1	false (0)
Cc1ccc(-c2ncn(-c3ccc(Nc4nccc(-c5cccc(N6CCOCC6)c5)n4)cc3)n2)cn1	true (1)
CCN(CC)CCNC(=O)c1ccc2nc(-c3ccccc3)c(-c3ccc(CN4CCC(n5c(=O)[nH]c6ccccc65)CC4)cc3)nc2c1	true (1)

Look up the recorded call for COc1cc(C(=O)N2CCC(N3CCN(C)CC3)CC2)ccc1Nc1ncc2c(n1)N(C)c1ccccc1C(=O)N2C in this test.
true (1)

Field entry: NC(=O)c1c(OCc2c(F)cc(Br)cc2F)nsc1NC(=O)NCCCCN1CCCC1
true (1)

Could you do the same for CCN1CCN(Cc2ccc(-c3cc4c(N[C@H](C)c5ccccc5)ncnc4[nH]3)cc2)CC1 , please?
true (1)

Now try C[C@@H](Oc1cc(-c2cnn(C3CCNCC3)c2)cnc1N)c1c(Cl)ccc(F)c1Cl .
true (1)

Also COc1ccc(CC2c3cc(OC)c(OC)cc3CC[N+]2(C)CCC(=O)OCCCCCOC(=O)CC[N+]2(C)CCc3cc(OC)c(OC)cc3C2Cc2ccc(OC)c(OC)c2)cc1OC (configuration not stated) ?
false (0)

Also CCc1cc2c(cc1N1CCC(N3CCOCC3)CC1)C(C)(C)c1[nH]c3cc(C#N)ccc3c1C2=O ?
false (0)

Another compound to look at: CNC(=O)CN1CCC(Oc2cc3c(Nc4cccc(Cl)c4F)ncnc3cc2OC)CC1
false (0)

Also, NC(=O)c1cccc2cn(-c3ccc([C@@H]4CCCNC4)cc3)nc12 please.
false (0)

Lookup CC1(C)CCC(c2ccc(Cl)cc2)=C(CN2CCN(c3ccc(C(=O)NS(=O)(=O)c4ccc(N[C@H](CCN5CCOCC5)CSc5ccccc5)c(S(=O)(=O)C(F)(F)F)c4)cc3)CC2)C1
false (0)

Please answer likewise for OCCCNc1cc(-c2ccnc(Nc3cccc(Cl)c3)n2)ccn1
true (1)

Would you kindly repeat that for Cc1cc(Nc2ncnc3ccc(-c4ccc(CNCCS(C)(=O)=O)o4)cc23)ccc1Oc1ccn2ncnc2c1 ?
false (0)

Also Fc1cc(-c2cccc3ncc(-c4cnn(C5CCNCC5)c4)nc23)cc(F)c1CN1CCOCC1 ?
true (1)

###

# ASSAY PROTOCOL: Quantitative High-Throughput drug screen in 47 multiple myeloma cell lines against the NCATS MIPE library collection: ARD_JJKsccE7 cell viability assay (AID 1918929;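 on viability: 100% = DMSO-only wells and 0% = media-only wells without cells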)
# EXPERIMENTAL CONDITIONS: ARD myeloma cell line viability, CellTiter-Glo, 48 h; series mostly up to 45.8 µM
Results filed as inconclusive are left out. Activity calls are given as the source filed them. The call rests on the fitted dose curve; in most records, active means well fitted cell-killing curve with a large enough effect; inconclusive means small, poorly fitted or top-dose-only effect, or effect the other way; inactive means no such curve, though single readings can be large or run the other way.
Assign a class; possible classes are active, inactive

Take a look at these entries with their results.
COMPOUND	ANSWER LABEL
Nc1ncnc2c1c(-c1cccc(OCc3ccccc3)c1)cn2C1CC(CN2CCCC2)C1 (centres undefined)	active
COc1cc(-c2nn(C3CCC(N4CCN(C(C)=O)CC4)CC3)c3ncnc(N)c23)ccc1NC(=O)c1cc2ccccc2n1C (centres undefined)	active

Called result for N#CCNC(=O)c1ccc(-c2ccnc(Nc3ccc(N4CCOCC4)cc3)n2)cc1
inactive

Thanks! And CCNC(=O)Nc1ccc2ncc(Nc3ccc(C)cc3)nc2n1 ?
active

One more compound: O=c1[nH]c(=O)n(C2CCCO2)cc1F (centres undefined)
inactive

Record: C[C@@H]1COC(Nc2ccc3ncnc(Nc4ccc(OCc5nccs5)c(Cl)c4)c3c2)=N1
active

Now give it for COc1cccc(Nc2c(C(N)=O)cnc3c(C)cc(S(=O)(=O)c4cccc(C(=O)N(C)C)c4)cc23)c1 too.
active

What about this compound? Cc1cc(C(=O)N2CCN(c3cccc(Cl)c3)CC2)n(-c2ccccc2)n1
active

Item: CC(C)c1ccccc1Cc1cc(C(=O)Nc2ccc(S(=O)(=O)c3ccccc3C(C)(C)C)cc2)c(O)c(O)c1O
inactive

###

# ASSAY PROTOCOL: qHTS profiling of the MIPE4 collection as inhibitors of Plasmodium falciparum (3D7) proliferation (AID 743344);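 further: scaled between DMSO vehicle wells and 0.29 µM artemisinin as full inhibition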
# EXPERIMENTAL CONDITIONS: P. falciparum 3D7 in erythrocytes, SYBR Green DNA fluorescence, 72 h; at 28.5 µM (top of the series) unless noted
Please go through the items and note down their parasite growth, % of DMSO control.
Answers are plain numbers, in %.

Study these solved cases before continuing.
COMPOUND	parasite growth, % of DMSO control (%)
COc1ccc(CC2SC(=O)NC2=O)cc1C(=O)NCc1ccc(C(F)(F)F)cc1 (centres undefined)	32.5
C=CCn1c(=O)c2cnc(Nc3ccc(N4CCN(C)CC4)cc3)nc2n1-c1cccc(C(C)(C)O)n1	13.4
CN1CCN(Cc2ccc(NC(=O)Nc3ccc(Oc4cc(NC(=O)C5CC5)ncn4)cc3)cc2C(F)(F)F)CC1	6
CC(C)CC(=O)Nc1n[nH]c2c1CN(C(=O)C1CCN(C)CC1)C2(C)C	5.43
C=CC(=O)Nc1cccc(Oc2nc(Nc3ccc(N4CCN(C)CC4)cc3OC)ncc2Cl)c1	10.5
CN(C)CCCN=c1c2ccccc2n(C)c2[nH]c(=O)n(C)c(=O)c12	5.98
CC(=O)Nc1nc(C)c(-c2ccc(Cl)c(S(=O)(=O)NCCO)c2)s1	4.79
CN(C)CC(C)(C)CNc1nn2c(-c3ccccc3)nnc2cc1C1CCC1	20

// query parasite growth, % of DMSO control value for entry Cc1cc(Nc2nc(N[C@@H](C)c3ccc(F)cc3)c(C#N)cc2F)n[nH]1
7.05

###

# ASSAY PROTOCOL: qHTS of pediatric cancer cell lines to identify multiple opportunities for drug repurposing: Primary screen for SK-N-MC cells (AID 1347093)
# EXPERIMENTAL CONDITIONS: SK-N-MC viability, CellTiter-Glo luminescence, 48 h; series mostly up to 46 µM
Records with an inconclusive call do not appear. Activity calls are given as the source filed them. The call rests on the fitted dose curve; in most records, active means well fitted cell-killing curve with a large enough effect; inconclusive means small, poorly fitted or top-dose-only effect; inactive means no such curve, though single readings can be large or run the other way.
Tick one outcome: active, inactive

Reference set (3 entries):
COMPOUND	ANSWER LABEL
CCCCOc1c(C(=O)c2c(F)cc(C)cc2F)cnc2n[nH]cc12	active
Cc1nc2ccc(CN(C)c3ccc(C(=O)N[C@@H](CCC(=O)O)C(=O)O)s3)cc2c(=O)[nH]1	active
CCCCCN(CCC12CC3CC(CC(C3)C1)C2)C(=O)NCCCc1ccncc1	active

# outcome recorded in this test, key = CC(NCc1ccc2c(c1)nc(NC(=O)c1ccc(-c3cn[nH]c3)s1)n2CC(C)(C)O)C(C)(C)C (stereo unspecified)
active

Same question, NC(=O)Nc1cc(-c2cccc(F)c2)sc1C(=O)N[C@H]1CCCNC1 this time
active

Next record, please: Cn1cncc1[C@@](N)(c1ccc(Cl)cc1)c1ccc2c(c1)c(-c1cccc(Cl)c1)cc(=O)n2C
active

Same for CN(C)CCCN=c1c2ccccc2n(C)c2[nH]c(=O)n(C)c(=O)c12
active

Then what about the compound COc1cc(Nc2ncc(F)c(Nc3ccc4c(n3)N(COP(=O)(O)O)C(=O)C(C)(C)O4)n2)cc(OC)c1OC ?
active

Here is the next compound: O=C(Nc1ncc(-c2cc(C(F)F)nn2-c2c(Cl)cccc2Cl)s1)C1CC1
active

What do we get for C=CC(=O)N1CCC[C@@H](n2nc(-c3ccc(Oc4ccccc4)cc3)c3c(N)ncnc32)C1 ?
active
